Test system: H929 cells
Assay: Cell viability CTG assay, H929
Assay type: cell-based
Set-up: key: Inactive represents IC50 > 50 μM; C represents 50 μM ≥ IC50 > 5 μM
Conditions: H929, 72 h, 0.001-50 μM
Readout Label: Geomean absolute IC50 by molecule, 72 H

# example entries with known answers
[[record]]
molecule = "N=C(N)NCCCC(N)C(=O)NCc1ccc2c(c1)CN(C1CCC(=O)NC1=O)C2=O (centres unmarked)"
tested_system = "H929 cells"
readout_label = "Geomean absolute IC50 by molecule, 72 H"
result = "Inactive"

[[record]]
molecule = "NCc1ccc2c(c1)CN(C1CCC(=O)NC1=O)C2=O (centres unmarked)"
tested_system = "H929 cells"
readout_label = "Geomean absolute IC50 by molecule, 72 H"
result = "Inactive"

[[record]]
molecule = "N[C@@H](Cc1cnc[nH]1)C(=O)NCc1ccc2c(c1)CN([C@H]1CCC(=O)NC1=O)C2=O"
tested_system = "H929 cells"
readout_label = "Geomean absolute IC50 by molecule, 72 H"
result = "Inactive"

[[record]]
molecule = "CC(OC(=O)NCc1ccc2c(c1)CN(C1CCC(=O)NC1=O)C2=O)OC(=O)C(C)C (centres unmarked)"
tested_system = "H929 cells"
readout_label = "Geomean absolute IC50 by molecule, 72 H"
result = "Inactive"

[[record]]
molecule = "C[C@@H](O)[C@H](N)C(=O)NCc1ccc2c(c1)CN(C1CCC(=O)NC1=O)C2=O (some centres unmarked)"
tested_system = "H929 cells"
readout_label = "Geomean absolute IC50 by molecule, 72 H"
result = "Inactive"

[[record]]
molecule = "NCc1cc2c(cc1F)C(=O)N(C1CCC(=O)NC1=O)C2 (centres unmarked)"
tested_system = "H929 cells"
readout_label = "Geomean absolute IC50 by molecule, 72 H"
result = "Inactive"

[[record]]
molecule = "NC(Cc1c[nH]c2ccccc12)C(=O)NCc1ccc2c(c1)CN(C1CCC(=O)NC1=O)C2=O (centres unmarked)"
tested_system = "H929 cells"
readout_label = "Geomean absolute IC50 by molecule, 72 H"
result = "Inactive"


-- ask Report measured Geomean absolute IC50 by molecule, 72 H; entry is N[C@@H](Cc1cnc[nH]1)C(=O)NCc1ccc2c(c1)CN([C@@H]1CCC(=O)NC1=O)C2=O
-- reply Inactive

---

Test system: HEP-3B
Experiment: Cell viability, additional cell lines (CellTiter-Glo), HEP-3B
Format: cell-based
Conditions: Homo sapiens, Hep3B, 72 h, read-out: Absolute IC50
Readout Label: IC50

-- ask Give me measured IC50, please, for this compound: NCc1ccc2c(c1)CN(C1CCC(=O)NC1=O)C2=O (stereo not shown) [Compound 1]
-- reply 100 to 1000 nM

---

Some compounds, each annotated with its measured pIC50.
Tested on: Kelly cells
Test: Cell viability CTG assay, Kelly
Assay type: cell-based
Details: 72 h, 0.001-50 μM, read-out: Kelly Geomean absolute IC50 by molecule, 72 H
pIC50: −log10 of the molar value.

Example cases with answers are listed next.
[[record]]
compound = "N[C@@H](Cc1cnc[nH]1)C(=O)NCc1ccc2c(c1)CN([C@H]1CCC(=O)NC1=O)C2=O [Compound 28]"
result = "6.00 to 7.00"

[[record]]
compound = "C[C@@H](O)[C@H](N)C(=O)NCc1ccc2c(c1)CN(C1CCC(=O)NC1=O)C2=O (stereo partly drawn) [Compound 39]"
result = "5.30 to 6.00"


-- ask For the compound CC(C)C(NC(=O)OC(C)(C)C)C(=O)NCc1ccc2c(c1)CN(C1CCC(=O)NC1=O)C2=O (stereo not drawn) [Compound 31] , give its reported pIC50.
-- reply 5.30 to 6.00

-- ask Return value of pIC50 for input CC(=O)Oc1ccc(COC(=O)NCc2ccc3c(c2)CN(C2CCC(=O)NC2=O)C3=O)cc1 (stereo not drawn) [Compound 22] , no commentary.
-- reply 6.00 to 7.00

-- ask Read the entry O=C(CCc1c[nH]c2ccccc12)NCc1ccc2c(c1)CN(C1CCC(=O)NC1=O)C2=O (stereo not drawn) [Compound 36] and write its reported pIC50.
-- reply ≥ 7.00

-- ask Look up and report measured pIC50 for this entry: O=C(CCc1ccc(Cl)cc1)NCc1ccc2c(c1)CN(C1CCC(=O)NC1=O)C2=O (stereo not drawn) [Compound 42]
-- reply ≥ 7.00

---

Test system: Kasumi-1
Assay: Cell viability, additional cell lines (CellTiter-Glo), Kasumi-1
Type: cell-based
Conditions: Homo sapiens; Kasumi-1, 72 h; read-out: Absolute IC50
Readout Label: pIC50
Remember, pIC50 is on a log scale: it is -log10 of the molar concentration.

-- ask Item O=C1CCC(N2Cc3cc(CNC(=O)C(F)(F)c4ccc(Cl)cc4)ccc3C2=O)C(=O)N1 (centres unmarked) [CC-90009, reference compound] : provide pIC50
-- reply 7.46

---

Test system: TMD8
Assay: Cell viability, additional cell lines (CellTiter-Glo), TMD8
Assay type: cell-based
Settings: Homo sapiens, TMD8, 72 h; read-out: Absolute IC50
Readout Label: pIC50
pIC50 is defined as minus the log10 of a concentration measured in mol/L.

-- ask Give pIC50 for the following compound: O=C1CCC(N2Cc3cc(CNC(=O)C(F)(F)c4ccc(Cl)cc4)ccc3C2=O)C(=O)N1 (centres unmarked) [CC-90009, reference compound]
-- reply 6.58

---

Items are presented alongside their recorded inhibition at 20 µM.
Molecular target: Ikaros (IKZF1) (Homo sapiens, UniProt Q13422+Q96SW2)
Construct: Ikaros degradation in the H929 cell line was investigated; endogenous in cells; host or cells: H929
Sequence (Q13422 whole entry): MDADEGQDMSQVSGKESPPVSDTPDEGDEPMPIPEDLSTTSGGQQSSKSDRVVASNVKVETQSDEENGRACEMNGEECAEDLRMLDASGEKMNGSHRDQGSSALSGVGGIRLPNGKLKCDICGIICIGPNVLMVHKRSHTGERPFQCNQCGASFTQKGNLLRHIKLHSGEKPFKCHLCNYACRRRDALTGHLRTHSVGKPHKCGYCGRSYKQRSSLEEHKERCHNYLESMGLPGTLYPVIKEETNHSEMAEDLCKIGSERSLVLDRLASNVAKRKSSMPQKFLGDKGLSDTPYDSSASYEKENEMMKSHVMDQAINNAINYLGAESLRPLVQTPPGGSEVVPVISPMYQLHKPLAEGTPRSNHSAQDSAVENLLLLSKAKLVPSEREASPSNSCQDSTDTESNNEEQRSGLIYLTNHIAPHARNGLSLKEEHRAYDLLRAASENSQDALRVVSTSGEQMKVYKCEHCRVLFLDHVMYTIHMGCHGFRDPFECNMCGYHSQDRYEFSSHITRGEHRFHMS
Sequence (Q96SW2 whole entry): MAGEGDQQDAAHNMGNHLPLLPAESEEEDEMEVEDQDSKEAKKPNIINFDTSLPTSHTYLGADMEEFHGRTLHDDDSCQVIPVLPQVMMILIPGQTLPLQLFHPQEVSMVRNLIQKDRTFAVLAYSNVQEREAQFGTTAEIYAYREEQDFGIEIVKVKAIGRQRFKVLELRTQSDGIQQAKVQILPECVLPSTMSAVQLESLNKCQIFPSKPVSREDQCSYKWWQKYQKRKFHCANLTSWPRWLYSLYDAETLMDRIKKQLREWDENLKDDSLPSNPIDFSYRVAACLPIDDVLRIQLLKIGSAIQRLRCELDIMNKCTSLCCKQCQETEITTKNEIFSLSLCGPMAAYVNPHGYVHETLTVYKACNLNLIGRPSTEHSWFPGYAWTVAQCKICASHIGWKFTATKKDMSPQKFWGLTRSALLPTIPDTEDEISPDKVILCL
Sequence (Q16531 whole entry partner): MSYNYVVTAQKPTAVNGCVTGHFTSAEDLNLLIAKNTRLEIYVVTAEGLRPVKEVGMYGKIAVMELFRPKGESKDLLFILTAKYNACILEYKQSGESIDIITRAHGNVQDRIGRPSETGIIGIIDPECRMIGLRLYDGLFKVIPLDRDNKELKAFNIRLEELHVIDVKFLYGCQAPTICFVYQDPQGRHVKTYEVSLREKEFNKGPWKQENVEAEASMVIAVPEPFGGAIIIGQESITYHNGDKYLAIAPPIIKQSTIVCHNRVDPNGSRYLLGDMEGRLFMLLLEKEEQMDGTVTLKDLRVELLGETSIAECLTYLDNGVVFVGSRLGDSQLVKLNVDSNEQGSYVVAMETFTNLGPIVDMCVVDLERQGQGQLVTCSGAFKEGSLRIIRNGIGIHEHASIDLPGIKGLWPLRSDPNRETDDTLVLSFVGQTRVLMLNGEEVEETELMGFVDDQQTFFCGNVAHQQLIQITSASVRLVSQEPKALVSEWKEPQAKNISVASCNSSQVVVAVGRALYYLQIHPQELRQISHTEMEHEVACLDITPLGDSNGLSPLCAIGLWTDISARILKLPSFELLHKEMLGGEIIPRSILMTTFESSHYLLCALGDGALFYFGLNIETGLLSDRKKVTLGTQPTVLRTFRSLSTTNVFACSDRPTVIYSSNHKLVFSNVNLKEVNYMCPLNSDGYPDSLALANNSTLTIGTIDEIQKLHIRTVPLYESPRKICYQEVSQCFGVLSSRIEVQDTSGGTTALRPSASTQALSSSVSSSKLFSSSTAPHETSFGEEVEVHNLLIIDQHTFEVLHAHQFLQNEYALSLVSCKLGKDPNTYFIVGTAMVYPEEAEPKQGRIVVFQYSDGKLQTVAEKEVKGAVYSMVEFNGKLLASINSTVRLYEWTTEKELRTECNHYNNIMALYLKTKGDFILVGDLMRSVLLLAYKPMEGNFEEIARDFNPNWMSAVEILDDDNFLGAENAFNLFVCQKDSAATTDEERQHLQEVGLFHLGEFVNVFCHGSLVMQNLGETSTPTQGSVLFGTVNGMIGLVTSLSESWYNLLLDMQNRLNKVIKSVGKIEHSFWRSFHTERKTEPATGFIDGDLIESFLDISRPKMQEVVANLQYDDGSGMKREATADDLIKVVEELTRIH
Assay: Ikaros degradation assay, H929 cell line
Format: cell-based
Settings: NCI-H929; H929 cells, 20 uM, 24 h; read-out: % of IKZF1 protein reduction
Method: Cells were seeded on 6- or 12-well plates, and the compounds to be tested were added at the desired concentration range. […] After 24 h incubation (37° C., 5% CO2), cells were harvested, washed and cell lysates were prepared using RIPA lysis buffer. The amount of protein was determined via BCA assay, and the appropriate quantity was then loaded on the precast gel for the protein separation. After primary and secondary Ab staining, the membranes were washed and signals developed. […]

Below, each entry is followed by its recorded inhibition at 20 µM result.
[[record]]
compound = "C[C@@H](NC(=O)OC(C)(C)C)c1ccc2c(c1)CN(C1CCC(=O)NC1=O)C2=O (some centres unmarked) [Compound 11]"
result = "0 to 24%"

[[record]]
compound = "NCc1ccc2c(c1)CN(C1CCC(=O)NC1=O)C2=O (centres unmarked) [Compound 1]"
result = "0 to 24%"

[[record]]
compound = "C[C@@H](O)[C@H](N)C(=O)NCc1ccc2c(c1)CN(C1CCC(=O)NC1=O)C2=O (some centres unmarked) [Compound 39]"
result = "0 to 24%"

[[record]]
compound = "NC(Cc1c[nH]c2ccccc12)C(=O)NCc1ccc2c(c1)CN(C1CCC(=O)NC1=O)C2=O (centres unmarked) [Compound 37]"
result = "0 to 24%"

[[record]]
compound = "C[C@H](N)c1ccc2c(c1)CN(C1CCC(=O)NC1=O)C2=O (some centres unmarked) [Compound 8]"
result = "0 to 24%"


-- ask Indicate the recorded inhibition at 20 µM value for this compound: CC(C)C(NC(=O)OC(C)(C)C)C(=O)NCc1ccc2c(c1)CN(C1CCC(=O)NC1=O)C2=O (centres unmarked) [Compound 31]
-- reply 0 to 24%

-- ask Please indicate inhibition at 20 µM recorded for CC(C)(C)OC(=O)NCC(=O)NCc1ccc2c(c1)CN(C1CCC(=O)NC1=O)C2=O (centres unmarked) [Compound 26]
-- reply 0 to 24%

-- ask Name the recorded inhibition at 20 µM of the compound listed here: CC(C)(C)OC(=O)N[C@@H](Cc1cnc[nH]1)C(=O)NCc1ccc2c(c1)CN([C@@H]1CCC(=O)NC1=O)C2=O [Compound 29]
-- reply 0 to 24%

---

Molecular target: GSPT1 (Homo sapiens, UniProt P15170+Q96SW2)
Construct: GSPT1 degradation in the Hep3B cell line was investigated; endogenous in cells; host or cells: Hep3B
Sequence (P15170 whole entry, one chain of several): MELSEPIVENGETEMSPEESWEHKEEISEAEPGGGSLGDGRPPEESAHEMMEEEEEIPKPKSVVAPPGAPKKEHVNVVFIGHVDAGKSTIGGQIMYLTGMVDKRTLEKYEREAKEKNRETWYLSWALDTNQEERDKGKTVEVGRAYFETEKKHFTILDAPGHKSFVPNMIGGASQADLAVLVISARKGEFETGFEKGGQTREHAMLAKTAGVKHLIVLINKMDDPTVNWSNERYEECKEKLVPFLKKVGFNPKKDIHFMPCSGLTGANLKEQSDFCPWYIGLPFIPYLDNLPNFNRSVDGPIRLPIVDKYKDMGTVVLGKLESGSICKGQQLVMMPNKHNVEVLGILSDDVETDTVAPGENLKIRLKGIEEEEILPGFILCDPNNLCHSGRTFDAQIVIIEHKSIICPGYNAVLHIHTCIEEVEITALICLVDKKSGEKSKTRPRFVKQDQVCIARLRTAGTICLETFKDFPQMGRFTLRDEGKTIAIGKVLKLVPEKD
Experiment: GSPT1 degradation assay, Hep3B cell line
Type: cell-based
Conditions: HEP3B cells, 1 uM, 24 h; read-out: % of GSPT1 protein reduction
Entries and their inhibition at 1 µM values follow.

Solved entries:
[[record]]
compound = "N[C@@H](Cc1cnc[nH]1)C(=O)NCc1ccc2c(c1)CN([C@H]1CCC(=O)NC1=O)C2=O"
result = "80 to 100%"

[[record]]
compound = "NCc1ccc2c(c1)CN(C1CCC(=O)NC1=O)C2=O (centres unmarked)"
result = "80 to 100%"

[[record]]
compound = "N[C@@H](Cc1cnc[nH]1)C(=O)NCc1ccc2c(c1)CN([C@@H]1CCC(=O)NC1=O)C2=O"
result = "80 to 100%"


-- ask Give reported inhibition at 1 µM value for Nc1c(O)ccc2c1C(=O)N(C1CCC(=O)NC1=O)C2=O (centres unmarked)
-- reply 50 to 79%

-- ask Provide measured inhibition at 1 µM value, entry: O=C1CCC(N2Cc3cc(C(=O)O)ccc3C2=O)C(=O)N1 (centres unmarked)
-- reply 50 to 79%
